# Lookup of reported survival keyed by entry
Test system: DeltatarO mutant
Assay: S. aureus survival, RN4220 and DeltatarO strains – OD600, teichoic acid synthesis inhibitors, primary screen (AID 463173)
Conditions: S. aureus RN4220 wild type/DeltatarO growth, OD600, 18 h, hits give low values, screened at 18.75 µg/mL (by protocol)
The whole screen tested about 52,000 compounds, of which about 4,300 (8.3%) were called active. What follows is part of a selection rich in actives, with near analogues and random picks from the rest.

- Compound: "CCOC(=O)C1=C(c2ccccc2)OC(N)=C(C#N)C1c1ccncc1 (stereo unspecified)"
  Measured target: "DeltatarO mutant"
  Uom: "%"
  survival: 87
- Compound: "COc1ccc(-c2csc(NC(=O)C(C)C)n2)cc1"
  Measured target: "DeltatarO mutant"
  Uom: "%"
  survival: 84
- Compound: "O=C(CN1C(=O)COc2ccc(S(=O)(=O)N3CCCCCC3)cc21)NCc1ccc(Cl)cc1"
  Measured target: "DeltatarO mutant"
  Uom: "%"
  survival: 113
- Compound: "COc1ccc(NC(=O)c2ccco2)cc1NC(=O)C(C)C"
  Measured target: "DeltatarO mutant"
  Uom: "%"
  survival: 84
- Compound: "COc1ccc(CC(=O)N2CCc3cc(OC)c(OC)cc3C2COc2ccc(F)cc2)cc1 (stereo unspecified)"
  Measured target: "DeltatarO mutant"
  Uom: "%"
  survival: 67
- Compound: "COCCCNc1nc2c(c(=O)[nH]c(=O)n2C)n1CC(O)COc1ccc(Cl)cc1 (stereo unspecified)"
  Measured target: "DeltatarO mutant"
  Uom: "%"
  survival: 66
- Compound: "CC(C)N1CC2=C(OC(N)=C(C#N)C2c2cccnc2)/C(=C/c2cccnc2)C1 (stereo unspecified)"
  Measured target: "DeltatarO mutant"
  Uom: "%"
  survival: 85
- Compound: "COc1ccccc1NC(=O)CSC1=Nc2ccccc2C2=NC(CC(=O)NCc3ccccc3)C(=O)N12 (stereo unspecified)"
  Measured target: "DeltatarO mutant"
  Uom: "%"
  survival: 71
- Compound: "Cc1ccc(Oc2c(C(F)(F)F)oc3cc(OCC(=O)NC4CCCCC4)ccc3c2=O)cc1"
  Measured target: "DeltatarO mutant"
  Uom: "%"
  survival: 46
- Compound: "O=C(Nc1cccc(F)c1)C1CCCN(S(=O)(=O)c2cccc3cccnc23)C1 (stereo unspecified)"
  Measured target: "DeltatarO mutant"
  Uom: "%"
  survival: 70
- Compound: "COc1ccc(-n2c(SCC(=O)Nc3cc(C)cc(C)c3)nc3c(oc4ccccc43)c2=O)cc1"
  Measured target: "DeltatarO mutant"
  Uom: "%"
  survival: 70
- Compound: "CC(C)c1ccc(CN(C(=O)c2cc3ccccc3oc2=O)C2CCS(=O)(=O)C2)cc1 (stereo unspecified)"
  Measured target: "DeltatarO mutant"
  Uom: "%"
  survival: 51
- Compound: "O=C(CSC1=NCCN1)C1COc2ccccc2O1 (stereo unspecified)"
  Measured target: "DeltatarO mutant"
  Uom: "%"
  survival: 88
- Compound: "COc1ccc(NC(=O)c2ccco2)cc1NC(=O)c1ccc(OC(C)C)cc1"
  Measured target: "DeltatarO mutant"
  Uom: "%"
  survival: 121
- Compound: "COc1ccc(NC(=O)c2ccco2)cc1NC(=O)COc1ccc(Cl)cc1C"
  Measured target: "DeltatarO mutant"
  Uom: "%"
  survival: 57
- Compound: "CC1CCc2nc(NC(=O)COc3ccc(C(C)(C)C)cc3)sc2C1 (stereo unspecified)"
  Measured target: "DeltatarO mutant"
  Uom: "%"
  survival: 80
- Compound: "CCSc1nnc2n(-c3cccc(C)c3)c(=O)c3c4c(sc3n12)CCCC4"
  Measured target: "DeltatarO mutant"
  Uom: "%"
  survival: 71
- Compound: "Cc1ccc(C)c(CN2C(=O)c3ccccc3S(=O)(=O)c3ccc(C(=O)N4CCCCC4)cc32)c1"
  Measured target: "DeltatarO mutant"
  Uom: "%"
  survival: 61
- Compound: "Cc1cc2nn(-c3ccc(F)cc3)nc2cc1NC(=O)c1cc(Cl)ccc1Cl"
  Measured target: "DeltatarO mutant"
  Uom: "%"
  survival: 141
- Compound: "Cc1cc(-c2ccc(C)c(S(=O)(=O)N(C(C)C)C3CCCCC3)c2)on1"
  Measured target: "DeltatarO mutant"
  Uom: "%"
  survival: 88
- Compound: "Cc1ccc(Oc2coc3cc(OCC(=O)NC4CCCCC4)ccc3c2=O)cc1"
  Measured target: "DeltatarO mutant"
  Uom: "%"
  survival: 55
